Numbers sourced from patent US20240415819A1.

Measured on: β5 subunit of the human constitutive proteasome (CPS) (Homo sapiens)
Assay protocol: β5 inhibition assay, human constitutive proteasome (Suc-LLVY-AMC)
Condition: IC50 class, Suc-LLVY-AMC substrate
pIC50: −log10 of the molar value.
Measured attribute: pIC50

Take a look at these entries with their results.
Compound	Measured on	pIC50
Cc1ccc2cc1CNC(=O)[C@H](CCc1ccccc1)NC(=O)[C@@H](NC(=O)CCNCc1cccc(N3CCOCC3)c1)CC(=O)N1CCCC(CCO2)C1 (stereo partly shown)	β5 subunit of the human constitutive proteasome (CPS) (Homo sapiens)	> 7.00
Cc1ccc2cc1CNC(=O)[C@H](CCc1ccccc1)NC(=O)[C@@H](N1CCCC1)CC(=O)N1CCCC(CCO2)C1 (stereo partly shown)	β5 subunit of the human constitutive proteasome (CPS) (Homo sapiens)	6.30 to 7.00
COC(C(=O)N[C@H]1CC(=O)N2CCCC(CCOc3ccc(C)c(c3)CNC(=O)[C@H](CCc3ccccc3)NC1=O)C2)c1ccc(N)cc1 (stereo partly shown)	β5 subunit of the human constitutive proteasome (CPS) (Homo sapiens)	> 7.00
Cc1ccc2cc1CNC(=O)[C@H](CCc1ccccc1)NC(=O)[C@@H](NC(=O)CCNCc1ccc(N3CCN(Cc4ccccc4)CC3)cc1)CC(=O)N1CCCC(CCO2)C1 (stereo partly shown)	β5 subunit of the human constitutive proteasome (CPS) (Homo sapiens)	> 7.00
Cc1ccc2cc1CNC(=O)[C@H](CCc1ccccc1)NC(=O)[C@@H](NC(=O)OCc1ccccc1)CCC(=O)N1CCC(CCO2)C1 (stereo partly shown)	β5 subunit of the human constitutive proteasome (CPS) (Homo sapiens)	> 7.00

State, in one line, measured pIC50 of CNCCOCC(=O)N[C@H]1CC(=O)N2CCCC(CCOc3ccc(C)c(c3)CNC(=O)[C@H](CCc3ccccc3)NC1=O)C2 (stereo partly shown)
> 7.00

State, in one line, measured pIC50 of Cc1ccc2cc1CNC(=O)[C@H](CCc1ccccc1)NC(=O)[C@@H](NC(=O)N1CC(O)C1)CC(=O)N1CCCC(CCO2)C1 (stereo partly shown)
> 7.00

State, in one line, measured pIC50 of Cc1ccc2cc1CNC(=O)[C@H](CCc1ccccc1)NC(=O)[C@@H](NC(=O)c1ccncc1)CC(=O)N1CCCC(CCO2)C1 (stereo partly shown)
> 7.00

State, in one line, measured pIC50 of CC(=O)N[C@H]1CC(=O)N2CCCC(CCOc3ccc(C)c(c3)CNC(=O)C(c3cc(C)n(C)n3)NC1=O)C2 (stereo partly shown)
> 7.00

State, in one line, measured pIC50 of CC(=O)N[C@H]1CCC(=O)N(C)CCCCOc2ccc(C)c(c2)CNC(=O)[C@H](CCc2ccccc2)NC1=O
< 5.30

----------
Tested on: HT-29 cells
Assay protocol: CellTiter-Glo luminescent cell viability assay with HT-29 cells (72h incubation)
Format: cell-based, human
Condition: Homo sapiens, HT-29, HT29 cells, read-out: CTG HT29
Measured attribute: IC50

Take a look at these entries with their results.
Compound	IC50
Cc1ccc2cc1CNC(=O)[C@H](CCc1ccccc1)NC(=O)CCCCC(=O)N1CCCC(CCO2)C1 (some centres unmarked)	100 to 500 nM
CC(=O)N[C@H]1CC(=O)N2CCCC(CCOc3ccc(C)c(c3)CNC(=O)C(c3cn[nH]c3)NC1=O)C2 (some centres unmarked)	100 to 500 nM
Cc1ccc2cc1CNC(=O)[C@H](CCc1ccccc1)NC(=O)[C@@H](NC(=O)CC(C)(C)C)CC(=O)N1CCCC(CCO2)C1 (some centres unmarked)	< 100 nM
CC(=O)N[C@H]1CC(=O)N2CCCC(CCOc3ccc(C)c(c3)CNC(=O)C(c3cnn(CCCS(=O)(=O)O)c3)NC1=O)C2 (some centres unmarked)	500 to 1000 nM
Cc1ccc2cc1CNC(=O)[C@H](CCc1ccccc1)NC(=O)[C@@H](NS(C)(=O)=O)CC(=O)N1CCCC(CCO2)C1 (some centres unmarked)	< 100 nM

State, in one line, measured IC50 of Cc1ccc2cc1CNC(=O)[C@H](CCc1ccccc1)NC(=O)[C@@H](NC(=O)Cc1nnc(N)s1)CC(=O)N1CCCC(CCO2)C1 (some centres unmarked)
< 100 nM

State, in one line, measured IC50 of Cc1cc(CC(=O)N[C@H]2CC(=O)N3CCCC(CCOc4ccc(C)c(c4)CNC(=O)[C@H](CCc4ccccc4)NC2=O)C3)ccc1N (some centres unmarked)
< 100 nM
